# GI50 per entry
- System: HL-60
- assay.notes: NCI tumour cell line growth inhibition, 48 h
Calls of active or inactive are those of the source. Rule as the data show it: active = GI50 up to about 1.1 µM and inactive = higher.

Example entries and their recorded answers appear below.
>>> print(df.to_string())
                                   compound  measure               result
0  CCOc1ccc(/C=C2\NC(=S)N(/C=C3\C(=O)Oc4ccccc4C3=O)C2=O)cc1     GI50   13.7 µM (inactive)
1  COC(=O)[C@@H]1C[C@@H]2c3ccccc3N(S(=O)(=O)c3ccccc3)[C@@H]2N1C(=O)OC     GI50  > 100 µM (inactive)

Next, consider the following compound.
Enquiry: Can you share its GI50? I mean this compound: CCOP(=O)(COCCn1ncc(=O)[nH]c1=O)OCC
Return: > 100 µM (inactive)

====

- Test system: SK-MEL-28
- assay.notes: NCI tumour cell line growth inhibition, 48 h
Counter-ions that a name gives are not always drawn. The source made the active and inactive calls. Rule as the data show it: active = GI50 up to about 1.1 µM and inactive = higher.
I would appreciate it if you answered using one of these outcomes: active, inactive

Here are 4 molecules together with their reported answers.
molecule	class.label
O=C1CSC(c2ccc(Cl)cc2)N1c1ccc(-c2ccc(-n3c(-c4ccccc4)nc4ccccc4c3=O)cc2)cc1 (centres undefined)	inactive
CC(C)=CC(=O)c1[nH]c2ccccc2c1CC(=O)NCCc1c[nH]cn1	inactive
COc1cc(C(=O)c2cocc2C(=O)c2ccc3c(c2)OCO3)cc(OC)c1OC	inactive
N#Cc1cc2c(n(C3OC(CO)C(O)C(O)C3O)c1=S)CCC2 (centres undefined)	inactive

Enquiry: I would be grateful if you could indicate the recorded call for NC(=O)c1cn(C2OC(CO)C(O)C2O)c2nc[n+]([O-])c(N)c12 (centres undefined) .
Return: active

Enquiry: What do you have for CC(C)C[C@H]1C(=O)N2CCC[C@H]2[C@]2(O)O[C@](NC(=O)[C@@H]3C=C4c5cccc6[nH]c(Br)c(c56)C[C@H]4N(C)C3)(C(C)C)C(=O)N12 [BROMOCRIPTINE MESYLATE] ?
Return: inactive

====

- Tested on: ACHN
- assay.notes: NCI tumour cell line growth inhibition, 48 h
Active and inactive are the calls of the source. Rule as the data show it: active = GI50 up to about 1.1 µM and inactive = higher.
measure: GI50

Example entries and their recorded answers appear below.
>>> df
                                   compound               result
0  CC(C)CCNC(=O)c1ccc(CNC(=O)/C=C/c2ccc(-c3ccccc3[N+](=O)[O-])o2)cc1   53.2 µM (inactive)
1  CC1=C(C(=O)Nc2ccccc2)C(c2ccc(C3C(C(=O)Nc4ccccc4)=C(C)NC(C)=C3C(=O)Nc3ccccc3)cc2)C(C(=O)Nc2ccccc2)=C(C)N1   2.04 µM (inactive)
2  COC(=O)C1(Cc2ccccc2)Cc2ccccc2C1=O (stereo not given)   36.6 µM (inactive)
3  COc1c2c(cc3c1C1(O)Cc4ccc5c(c4C[N+]1(C)CC3)OCO5)OCO2 (stereo not given)  > 100 µM (inactive)

Next, consider the following compound.
Enquiry: Can you share its GI50? I mean this compound: CC1(N2CCOCC2)CC2C(=[N+]1[O-])CCC/C2=N/O (stereo not given)
Return: > 100 µM (inactive)

====

- Test system: HL-60
- assay.notes: NCI tumour cell line growth inhibition, 48 h
Active and inactive are the calls of the source. No stated cut-off is given here; in the data, active = GI50 up to about 1.1 µM and inactive = higher.
measure: GI50

                                   compound  measure               result
0  O=C1/C(=C/c2ccc(O)cc2)CCc2ccc([N+](=O)[O-])cc21     GI50    5.5 µM (inactive)
1  COc1cc(S(=O)(=O)Nc2ccc(-c3csc(N4C(=O)C(C)SC4c4ccccc4O)n3)cc2)ccc1Cl (centres undefined)     GI50   27.3 µM (inactive)
2  CCCCCC/C=C1\CCC(CN(C)C)C1=O (centres undefined)     GI50   1.52 µM (inactive)
3  CC1(C)O[C@H]2[C@@H]3N=C(c4ccccc4)O[C@@H]3C=C[C@H]2O1     GI50  > 100 µM (inactive)
4  CC(=O)[C@H]1[C@@H](OCc2ccccc2)O[N+]([O-])=C(C)[C@@H]1c1ccccc1     GI50     19 µM (inactive)
5  O=C(Nc1ccc(Cl)cc1)C(=O)C1=C(O)c2ccccc2OC1     GI50  > 100 µM (inactive)
6                          CN1CCN(CCCNN)CC1     GI50   7.33 µM (inactive)
7             c1ccc(-c2csc3ncn4cnnc4c23)cc1     GI50   86.1 µM (inactive)

Enquiry: Can you share its GI50? I mean this compound: Cn1cc2ccccc2c1-c1nc(F)nc(F)n1
Return: 45.5 µM (inactive)

====

- Tested on: NCI-H226
- assay.notes: NCI tumour cell line growth inhibition, 48 h
The source made the active and inactive calls. No stated cut-off is given here; in the data, active = GI50 up to about 1.1 µM and inactive = higher.
I would appreciate it if you answered using one of these outcomes: YES (active), NO (inactive)

Here are 3 compounds together with their reported answers.
compound	class.label
COc1cc(S(=O)(=O)Nc2nc(-c3ccc(N)cc3)cs2)ccc1Cl	NO
Cc1c(C)c(CC(=O)N2CC2)c(C)c(C)c1CC(=O)N1CC1	NO
CC1(N2CCOCC2)CC2C(=[N+]1[O-])CCC/C2=N/O (stereo unspecified)	NO

Enquiry: I would be grateful if you could indicate the recorded call for Cc1ccc(-c2n[nH]c(=O)[nH]2)cc1[N+](=O)[O-] .
Return: NO

Enquiry: What do you have for C=C(C)[C@@]1(O)O[C@H]2C[C@@]3(C)OC(=CC3=O)/C(C)=C\[C@@H]3OC(=O)[C@@]1(C)[C@H]32 ?
Return: NO

Enquiry: What do you have for CCCCCC(/C=N/NC(N)=S)C(O)(C(F)(F)F)C(F)(F)F (stereo unspecified) ?
Return: NO

====

- Test system: SR
- assay.notes: NCI tumour cell line growth inhibition, 48 h
Active and inactive are the calls of the source. No stated cut-off is given here; in the data, active = GI50 up to about 1.1 µM and inactive = higher.
# GI50 per entry

Enquiry: Can you share its GI50? I mean this molecule: O=C(O)c1ccc2c(c1)Cc1cc([N+](=O)[O-])ccc1-2
Return: 86.1 µM (inactive)

Enquiry: What do you have for CCCCCC(/C=N/NC(N)=S)C(O)(C(F)(F)F)C(F)(F)F (stereo not drawn) ?
Return: > 10 µM (inactive)

Enquiry: What do you have for O=C(O)Cc1ccc2c(c1O)C(=O)c1c(ccc(CC(=O)O)c1O)C2=O ?
Return: > 100 µM (inactive)

Enquiry: What do you have for Cc1ccc(CC2(C(=O)O)Cc3ccc(C)cc3C2)cc1 (stereo not drawn) ?
Return: > 100 µM (inactive)

Enquiry: What do you have for Cc1c(C)c2ccc(OC(C)C(=O)O)cc2oc1=O (stereo not drawn) ?
Return: > 100 µM (inactive)

Enquiry: What do you have for C=C1C(=O)OC2/C=C(\COC(C)=O)CCC(OC(C)=O)C3=CC(OC3=O)C12 (stereo not drawn) ?
Return: 2.3 µM (inactive)

Enquiry: What do you have for CC1CCCCN1CC(=O)c1ccc2c(c1)Sc1ccccc1O2 (stereo not drawn) ?
Return: 15.3 µM (inactive)

Enquiry: What do you have for CCOC(=O)C(C(N)=O)C1=Nc2cc([N+](=O)[O-])ccc2N/C1=C\C(=O)c1ccc(C)cc1 (stereo not drawn) ?
Return: 7.55 µM (inactive)

Enquiry: What do you have for Nc1nccc2c1ncn2C1C=C(CO)C(O)C1O (stereo not drawn) ?
Return: 3.29 µM (inactive)

Enquiry: What do you have for Cc1cccc(NC(=O)CSc2nnc(-c3ccc(/N=C\c4ccc(Cl)cc4)cc3)o2)c1 ?
Return: > 100 µM (inactive)

Enquiry: What do you have for c1ccc2c(c1)SCCCSCCCS2 ?
Return: 50.5 µM (inactive)

Enquiry: What do you have for CCOC(=O)C1=C(Nc2ccc(Cl)cc2Cl)OCC1=O ?
Return: > 100 µM (inactive)

Enquiry: What do you have for O=C1c2c(Br)sc(Br)c2[C@@H](O)[C@H]1O ?
Return: 1.96 µM (inactive)

Enquiry: What do you have for CN(C)C(=S)/N=c1\ss/c(=N\C(=S)N(C)C)n1-c1cccc(Cl)c1 ?
Return: > 100 µM (inactive)

Enquiry: What do you have for C=C(C)C1CC2(C)C(C)CC(OC(=O)/C(C)=C\C)CC2C(OC(=O)/C(C)=C\C)C1O (stereo not drawn) ?
Return: 19.8 µM (inactive)

Enquiry: What do you have for COc1ccc2c3c([nH]c(=O)c2c1C(=O)O)-c1ccccc1CC3 ?
Return: > 100 µM (inactive)

Enquiry: What do you have for COc1ccccc1NC(=O)C1=C(C)NC(C)=C(C(=O)Nc2ccccc2OC)C1c1ccccc1Cl ?
Return: 36.6 µM (inactive)

Enquiry: What do you have for O=C(O)CCNc1[nH]cnc2ncnc1-2 ?
Return: > 100 µM (inactive)

Enquiry: What do you have for Cn1c(=O)n2n(c1=O)C([S+]([O-])c1ccccc1)C2 (stereo not drawn) ?
Return: 38.3 µM (inactive)

Enquiry: What do you have for COC(=O)/C=C/CC(=O)NS(C)(=O)=O ?
Return: > 10 µM (inactive)
